# PROTOCOL NOTES: Rat IV pharmacokinetics
# Format: in vivo
# REPORTED CONDITIONS: male, Sprague-Dawley, IV 1 mg/kg, plasma
MEASURE NAME: Cmax
Your reply should be a number followed by the unit it is expressed in.

[Q] For the compound shown here, COc1ccc2sc(-c3cncc(NC(C)=O)c3)nc2c1 [PST-001] , give the reported Cmax.
[A] 0.647 µg/mL

---

# PROTOCOL NOTES: Mouse microsome stability assay
# Assay type: in vitro ADME
# REPORTED CONDITIONS: microsomes, read-out: half-life (t½)
MEASURE NAME: half-life (min)
Numbers only, in min.

[Q] Fill in the blank: the reported half-life of "COc1ccc2sc(-c3cncc(NC(C)=O)c3)nc2c1" is ____.
[A] 25
